Give measured pIC50 for each item. Keep answers brief.
Test system: SCC-15
assay.procedure: Cytotoxicity against human SCC-15 cells assessed as decrease in cellular metabolic activity incubated for 24 hrs by resazurin reduction assay
Format: functional, cell-based
condition.details: SCC-15, 24 h
pIC50: −log10 of the molar value.

Asked: I am curious: what pIC50 value has been reported for O=C1CC(N2C(=O)/C(=C/C(Cl)=C/c3ccc([N+](=O)[O-])cc3)SC2=S)C(=O)N1c1ccc(O)cc1 (stereo not drawn) ?
Given back: 4.75

Asked: I am curious: what pIC50 value has been reported for O=C1CC(N2C(=O)/C(=C/C(Cl)=C/c3ccc([N+](=O)[O-])cc3)SC2=S)C(=O)N1c1ccc(Cl)cc1 (stereo not drawn) ?
Given back: < 4.00

Asked: I am curious: what pIC50 value has been reported for O=C1CC(N2C(=O)/C(=C/C(Cl)=C/c3ccc([N+](=O)[O-])cc3)SC2=S)C(=O)N1c1ccc(Br)cc1 (stereo not drawn) ?
Given back: < 4.00

* * *

Give measured IC50 for each item. Keep answers brief.
assay.procedure: Cytotoxicity against mouse BALB/3T3 cells assessed reduction in cellular metabolic activity incubated for 24 to 72 hrs by MTT assay
Format: toxicity, cell-based

Asked: I am curious: what IC50 value has been reported for O=C1CC(N2C(=O)/C(=C/C(Cl)=C/c3ccc([N+](=O)[O-])cc3)SC2=S)C(=O)N1c1ccc(Cl)cc1 (stereo not drawn) ?
Given back: > 100 µM

Asked: I am curious: what IC50 value has been reported for O=C1CC(N2C(=O)/C(=C/C(Cl)=C/c3ccc([N+](=O)[O-])cc3)SC2=S)C(=O)N1c1ccc(Br)cc1 (stereo not drawn) ?
Given back: > 100 µM

Asked: I am curious: what IC50 value has been reported for O=C1CC(N2C(=O)/C(=C/C(Cl)=C/c3ccc([N+](=O)[O-])cc3)SC2=S)C(=O)N1c1ccc(O)cc1 (stereo not drawn) ?
Given back: > 100 µM

* * *

Give measured IC50 at 72 h for each item. Keep answers brief.
assay.procedure: Cytotoxicity against human HaCaT cells assessed reduction in cellular metabolic activity incubated for 72 hrs by MTT assay
Assay type: toxicity, cell-based
Please respond with the number in µM and leave the unit unwritten.

Asked: I am curious: what IC50 at 72 h value has been reported for O=C1CC(N2C(=O)/C(=C/C(Cl)=C/c3ccc([N+](=O)[O-])cc3)SC2=S)C(=O)N1c1ccc(O)cc1 (configuration not stated) ?
Given back: 73.6

Asked: I am curious: what IC50 at 72 h value has been reported for O=C1CC(N2C(=O)/C(=C/C(Cl)=C/c3ccc([N+](=O)[O-])cc3)SC2=S)C(=O)N1c1ccc(Br)cc1 (configuration not stated) ?
Given back: 83.6

* * *

assay.procedure: Cytotoxicity against mouse BALB/3T3 cells assessed reduction in cellular metabolic activity incubated for 72 hrs by MTT assay
Assay type: toxicity, cell-based
recorded.endpoint: IC50 at 72 h (µM)
Please respond with the number in µM and leave the unit unwritten.

Asked: I am curious: what IC50 at 72 h value has been reported for O=C1CC(N2C(=O)/C(=C/C(Cl)=C/c3ccc([N+](=O)[O-])cc3)SC2=S)C(=O)N1c1ccc(Br)cc1 (stereo unspecified) ?
Given back: 85.2
